As shown below, each of these binders has a reported EC50 value.
Biological target: sCoV2-RBD (Fc-tagged RBD of SARS-CoV-2 S protein) (SARS-CoV-2; human, UniProt P0DTC2 319-541)
Assay: ELISA titration on coated sCoV2-RBD
Give your result in nM as a bare value.

binder	EC50, nM
CoV2-31 (antibody, V domains shown) VH: QVQLQQWGAGLLKPSETLSRTCAVYGGSFSGYSWTWIRQAPGKGLEWIGEINHGGSTNYNPSLESRVSISVDTSKKQFSLELRSVTAADTAVYYCARGYDTNWYGDGYNWFDPWGQGTLVTVSS VL: QAVVTQPLSVSVALGQTAKIPCGGNNIGRKSVHWYQQKPGQAPVLVIYRDNNRPSGIPERFSGSNSGNTATLTISRAQAGDEADYYCQVWDSNTGVFGTGTKVTVL	58.1
CoV2-11 (antibody, V domains shown) VH: QVELVESGGGLVQPGRSLRLSCEASGFSFDNYAMHWVRQTPGKGLEWVSGITGNSGTIGYADSVKGRFTISRDNAKNSLYLQMNRLRAEDTALYYCAKDTDYDSSGSYFDYWGQGTLVTVSS VL: QPVLTQPPSVAVAPGQTARITCGGKNIGRESVHWYQQKPDQAPVLVIYSDGDRPSGTSERFSGSRSGNAATLTISRVEAGDEADYFCQVWDPDTDHYVFGTGTELTVL	0.6

Let's switch to this binder now.
Return EC50 (reported value) for this binder: CoV2-19 (antibody, V domains shown) VH: QVQLVQSGAEMKKPGASVKVSCKTSGYTFTNSYIHWVRQAPGQGLEWMGWINPISGGTNYAQKFQGRVTMTRDTSINTAYMELSRLRSDDTAVYYCARDRGDYDYGWGTSPFYFDYWGQGTLVTVSS VL: AIQLTQSPSSLSASVGDRVTITCRTSHTVNSYLNWYQQEPGKAPKLLIYAASNLQSGVPSRFSGSGSGTDFSLTIHNLQPEDFATYYCQQSYRTPLTFGQGTKVDIK
5.02
